Listed next: entries and their corresponding protein stability index.
B1: BCL2L13 (parent)
chain: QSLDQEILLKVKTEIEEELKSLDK

# Variants of: B1
# experimental protocol: protein stability index of a GFP-peptide fusion (GPS, HEK-293T) (PSI 1-6); higher = more stable;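 note: lentivirally expressed fusions sorted by FACS into six bins by GFP to DsRed ratio, PSI derived from sequencing read proportions per bin multiplied by bin number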
# condition info: c terminus: a fixed tail appended
measured quantity: protein stability index

record_sequence=QSLDQEILLKVKTEIEEEDKSLDK measured_quantity="protein stability index" quantitative_readout=5.77
record_sequence=QSLDQEILLKVGTEIEEELKSLDK measured_quantity="protein stability index" quantitative_readout=5.65
record_sequence=QSLDQEILLKVKTEIEEELKSADK measured_quantity="protein stability index" quantitative_readout=4.81
record_sequence=QSLDQEILLGVKTEIEEELKSLDK measured_quantity="protein stability index" quantitative_readout=4.83
record_sequence=QSLDQEILEKVKTEIEEELKSLDK measured_quantity="protein stability index" quantitative_readout=5.45
record_sequence=QSLDQEGLLKVKTEIEEELKSLDK measured_quantity="protein stability index" quantitative_readout=5.33
record_sequence=QSLDQEILLKVKTHIEEELKSLDK measured_quantity="protein stability index" quantitative_readout=4.26
record_sequence=QSADQEILLKVKTEIEEELKSLDK measured_quantity="protein stability index" quantitative_readout=5.71
record_sequence=QSLDQEILLKVKTEIEEELKRLDK measured_quantity="protein stability index" quantitative_readout=4.42
record_sequence=QSLDQFILLKVKTEIEEELKSLDK measured_quantity="protein stability index" quantitative_readout=3.51
record_sequence=QSLDQEILLKVKTEIEELLKSLDK measured_quantity="protein stability index" quantitative_readout=3.06
record_sequence=QSLDQEILLAVKTEIEEELKSLDK measured_quantity="protein stability index" quantitative_readout=4.98
record_sequence=QSLDQEILLKVKTEIEEQLKSLDK measured_quantity="protein stability index" quantitative_readout=3.88
record_sequence=QSLDQEIYLKVKTEIEEELKSLDK measured_quantity="protein stability index" quantitative_readout=3.76
record_sequence=QSLDQEILLKVKQEIEEELKSLDK measured_quantity="protein stability index" quantitative_readout=3.67
record_sequence=QSLDQEILLKVKTWIEEELKSLDK measured_quantity="protein stability index" quantitative_readout=2.47
record_sequence=QSLDQEILLKVKTEDEEELKSLDK measured_quantity="protein stability index" quantitative_readout=5.89
record_sequence=QSLDQEILLKVKTEIETELKSLDK measured_quantity="protein stability index" quantitative_readout=4.1
record_sequence=QSLDQEILLKVKTEIEVELKSLDK measured_quantity="protein stability index" quantitative_readout=2.69
record_sequence=QSLDQEILLKVKTCIEEELKSLDK measured_quantity="protein stability index" quantitative_readout=4.03
record_sequence=ISLDQEILLKVKTEIEEELKSLDK measured_quantity="protein stability index" quantitative_readout=3.44
record_sequence=QSLDQEILLKVKTEIEEELKVLDK measured_quantity="protein stability index" quantitative_readout=4.73
record_sequence=RSLDQEILLKVKTEIEEELKSLDK measured_quantity="protein stability index" quantitative_readout=4.64
record_sequence=QSLDQEILLKVKTPIEEELKSLDK measured_quantity="protein stability index" quantitative_readout=4.31
record_sequence=QSLDQEILQKVKTEIEEELKSLDK measured_quantity="protein stability index" quantitative_readout=5.37
record_sequence=QSLDQEILLKVKTEIEEEEKSLDK measured_quantity="protein stability index" quantitative_readout=5.71
record_sequence=QILDQEILLKVKTEIEEELKSLDK measured_quantity="protein stability index" quantitative_readout=4.91
record_sequence=QSLDQEILLKVKTEIEENLKSLDK measured_quantity="protein stability index" quantitative_readout=4.4
record_sequence=QSSDQEILLKVKTEIEEELKSLDK measured_quantity="protein stability index" quantitative_readout=5.31
record_sequence=QSLDQEILLKVKTEIEEELPSLDK measured_quantity="protein stability index" quantitative_readout=5.35
record_sequence=QSLDQGILLKVKTEIEEELKSLDK measured_quantity="protein stability index" quantitative_readout=4.78
record_sequence=QSLDQEILLKVKHEIEEELKSLDK measured_quantity="protein stability index" quantitative_readout=4.71
record_sequence=QSLDQEILLKVKTEIECELKSLDK measured_quantity="protein stability index" quantitative_readout=3.87
record_sequence=QSLDQEILRKVKTEIEEELKSLDK measured_quantity="protein stability index" quantitative_readout=5.05
record_sequence=HSLDQEILLKVKTEIEEELKSLDK measured_quantity="protein stability index" quantitative_readout=4.92
record_sequence=QSLDQEILLKVKTEISEELKSLDK measured_quantity="protein stability index" quantitative_readout=4.93
record_sequence=QSLDQEILLKVKTEIEEYLKSLDK measured_quantity="protein stability index" quantitative_readout=2.17
record_sequence=QSLDQEILLKVKTESEEELKSLDK measured_quantity="protein stability index" quantitative_readout=5.72
record_sequence=QSLDQEALLKVKTEIEEELKSLDK measured_quantity="protein stability index" quantitative_readout=5.66
record_sequence=QSLDQEILLKVYTEIEEELKSLDK measured_quantity="protein stability index" quantitative_readout=4.27
record_sequence=QSLDQEILLKKKTEIEEELKSLDK measured_quantity="protein stability index" quantitative_readout=5.99
record_sequence=QSLDQEILLKVKTEIEEELKSLMK measured_quantity="protein stability index" quantitative_readout=2.33
record_sequence=QSLDQEILLKVKTEIEEELKSLDT measured_quantity="protein stability index" quantitative_readout=4.79
record_sequence=QSLDEEILLKVKTEIEEELKSLDK measured_quantity="protein stability index" quantitative_readout=4.8
record_sequence=QSLSQEILLKVKTEIEEELKSLDK measured_quantity="protein stability index" quantitative_readout=4.42
record_sequence=QSLDQEYLLKVKTEIEEELKSLDK measured_quantity="protein stability index" quantitative_readout=5.46
